Cited source for all entries: PubChem BioAssay AID743482

- Assay: cytotoxicity in HepG2 cells, dose response, cytotoxicity control, cell-based, CellTiter-Glo luminescence, dry powder (AID 743482)
- Study Conditions: HepG2 viability, ATP luminescence, 72 h; series mostly up to 26 µM
The source made the active and inactive calls.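 How the source made its calls: active means falling viability signal whose fitted half-maximal concentration is at most twice the highest tested dose; inconclusive means flat fit with a moderate drop, or a poor curve fit; inactive means the rest.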
Quantity Name: outcome

These solved cases illustrate the format of a correct answer.
{"columns": ["Structure Smiles", "outcome"],
 "data": [
  ["C[C@H](CO)N1C[C@H](C)[C@H](CN(C)C(=O)Nc2ccc(C(F)(F)F)cc2)OCCCC[C@H](C)Oc2ccc(NC(=O)CCC(F)(F)F)cc2C1=O", "inactive"],
  ["C[C@@H]1CN([C@H](C)CO)C(=O)c2cc(NC(=O)C3CCCCC3)ccc2O[C@@H](C)CCCCO[C@H]1CN(C)C(=O)Nc1cccc2ccccc12", "inactive"],
  ["C[C@H](CO)N1C[C@H](C)[C@H](CN(C)C(=O)Nc2ccc(Cl)cc2)OCCCC[C@H](C)Oc2ccc(NC(=O)C3CCCCC3)cc2C1=O", "inactive"],
  ["C[C@H]1CCCCO[C@@H](CN(C)C(=O)Nc2ccc(C(F)(F)F)cc2)[C@@H](C)CN([C@@H](C)CO)C(=O)c2cc(NC(=O)CCC(F)(F)F)ccc2O1", "inactive"],
  ["C[C@H](CO)N1C[C@H](C)[C@H](CN(C)C(=O)Nc2cccc3ccccc23)OCCCC[C@H](C)Oc2ccc(NC(=O)C3CCCCC3)cc2C1=O", "inactive"]
]}

Entry under test: C[C@H](CO)N1C[C@H](C)[C@@H](CN(C)C(=O)Nc2cccc3ccccc23)OCCCC[C@H](C)Oc2ccc(NC(=O)C3CCCCC3)cc2C1=O . Its outcome was inactive

Entry under test: C[C@H]1CCCCO[C@H](CN(C)C(=O)Nc2cccc3ccccc23)[C@@H](C)CN([C@@H](C)CO)C(=O)c2cc(NC(=O)C3CCCCC3)ccc2O1 . Its outcome was inactive

Entry under test: C[C@@H]1CCCCO[C@H](CN(C)C(=O)Nc2cccc3ccccc23)[C@H](C)CN([C@H](C)CO)C(=O)c2cc(NC(=O)C3CCCCC3)ccc2O1 . Its outcome was inactive
